- measurement_target: β5 subunit of the human constitutive proteasome (CPS) (Homo sapiens)
- measurement_protocol: β5 inhibition assay, human constitutive proteasome (Suc-LLVY-AMC)
- measurement_conditions: IC50 class, Suc-LLVY-AMC substrate
pIC50: −log10 of the molar value.
reported_property: pIC50

Q: Return pIC50 measured with β5 subunit of the human constitutive proteasome (CPS) (Homo sapiens) given this compound: Cc1ccc2cc1CNC(=O)[C@H](CCc1ccccc1)NC(=O)[C@@H](NC(=O)C13CC(N)(C1)C3)CC(=O)N1CCCC(CCO2)C1 (stereo partly shown) [Compound 662]
Result: > 7.00

Q: Follow-up item: CC(=O)N[C@H]1CCCC(=O)N(C)CCCCOc2ccc(C)c(c2)CNC(=O)[C@H](CCc2ccccc2)NC1=O [Compound 295]
Result: > 7.00

Q: Another compound to look at: Cc1ccc2cc1CNC(=O)[C@H](CCc1ccccc1)NC(=O)[C@@H](Nc1ncccn1)CC(=O)N1CCCC(CCO2)C1 (stereo partly shown) [Compound 34]
Result: > 7.00

Q: Do the same for Cc1ccc2cc1CNC(=O)[C@H](CCc1ccccc1)NC(=O)[C@@H](NC(=O)C1(c3ccc(N)cc3)CCC1)CC(=O)N1CCCC(CCO2)C1 (stereo partly shown) [Compound 306] please
Result: > 7.00

Q: Can you check Cc1ccc2cc1CNC(=O)[C@H](CCc1ccccc1)NC(=O)[C@@H](NC(=O)C1(C)CCNCC1)CC(=O)N1CCCC(CCO2)C1 (stereo partly shown) [Compound 136] next?
Result: > 7.00

Q: And what about the compound Cc1ccc2cc1CNC(=O)[C@H](CCc1ccccc1)NC(=O)[C@@H](NC(=O)OCc1ccccc1)CCCC(=O)N1CCCC(CCO2)C1 (stereo partly shown) [Compound 195] ?
Result: > 7.00

Q: Now this one: CC(=O)N[C@H]1CC(=O)N2CCCC(CCOc3ccc(C)c(c3)CNC(=O)C(c3cn(C)cn3)NC1=O)C2 (stereo partly shown) [Compound 557]
Result: > 7.00

Q: Try the compound Cc1ccc2cc1CNC(=O)[C@H](CCc1ccccc1)NC(=O)[C@@H](NC(=O)Cc1ccccc1C)CC(=O)N1CCCC(CCO2)C1 (stereo partly shown) [Compound 373]
Result: > 7.00

Q: Same lookup for Cc1ccc2cc1CNC(=O)[C@H](CCc1ccccc1)NC(=O)[C@@H](NC(=O)CCOC1CC3(CNC3)C1)CC(=O)N1CCCC(CCO2)C1 (stereo partly shown) [Compound 725] , please.
Result: > 7.00

Q: Repeat for the following compound: Cc1ccc2cc1CNC(=O)[C@H](CCc1ccccc1)NC(=O)[C@@H](NC(=O)OCc1ccccc1)CC(=O)N1CCCC3(CC(C3)O2)C1 [Compound 300]
Result: 6.30 to 7.00

Q: Another: Cc1ccc2cc1CNC(=O)[C@H](C)NC(=O)CCC(=O)N1CCCC(CCO2)C1 (stereo partly shown) [Compound 78]
Result: 5.30 to 6.00

Q: Try the compound CC(=O)N[C@H]1CCCC(=O)N2CC3CC(Oc4ccc(C)c(c4)CNC(=O)[C@H](CCc4ccccc4)NC1=O)C3C2 (stereo partly shown) [Compound 191]
Result: 6.00 to 6.30

Q: Then what about the compound Cc1ccc2cc1CNC(=O)[C@H](CCc1ccccc1)NC(=O)[C@@H](NC(=O)CCOCC1CC3(CCC3)C1)CC(=O)N1CCCC(CCO2)C1 (stereo partly shown) [Compound 615] ?
Result: > 7.00

###

For each entry below, report its pIC50 value.
- measurement_target: β5 subunit of the human immunoproteasome (IPS) (Homo sapiens)
- measurement_protocol: β5 inhibition assay, human immunoproteasome (Suc-LLVY-AMC)
- measurement_conditions: IC50 class, Suc-LLVY-AMC substrate
pIC50: −log10 of the molar value.

Q: Given Cc1ccc2cc1CNC(=O)C(CCc1cccnc1)NC(=O)CCC(=O)N1CCCC(CCO2)C1 (stereo not shown) [Compound 51] , state its recorded pIC50.
Result: > 7.00

Q: Lookup CC(=O)N[C@H]1CC(=O)N2CCCC(CCOc3ccc(C)c(c3)CNC(=O)C(c3cn[nH]c3)NC1=O)C2 (stereo partly shown) [Compound 562]
Result: > 7.00

Q: Try CC(=O)N[C@H]1CC(=O)N2CCCC(CCOc3cccc(c3)CNC(=O)[C@H](CCc3ccccc3)NC1=O)C2 (stereo partly shown) [Compound 364] next.
Result: > 7.00

Q: Repeat with Cc1ccc2cc1CNC(=O)[C@H](CCc1ccccc1)NC(=O)[C@@H](NC(=O)c1ccccn1)CC(=O)N1CCCC(CCO2)C1 (stereo partly shown) [Compound 40]
Result: > 7.00

Q: Next up: CC(=O)N[C@H]1CC(=O)NCCCCOc2ccc(C)c(c2)CNC(=O)[C@H](CCc2ccccc2)NC1=O [Compound 168]
Result: 5.30 to 6.00

Q: Same thing, different compound: Cc1ccc2cc1CNC(=O)[C@H](CCc1ccccc1)NC(=O)[C@@H](N1C(=O)CCC1=O)CC(=O)N1CCCC(CCO2)C1 (stereo partly shown) [Compound 43]
Result: > 7.00

Q: // repeat for Cc1ccc2cc1CNC(=O)[C@H](CCc1ccccc1)NC(=O)[C@@H](NC(=O)CCNC1CC3(COC3)C1)CC(=O)N1CCCC(CCO2)C1 (stereo partly shown) [Compound 720] and report
Result: > 7.00

Q: Also check CC(=O)N[C@H]1CC(=O)N2CCCC(CCOc3ccc(C)c(c3)CNC(=O)C(c3cnn(-c4ccccc4)c3)NC1=O)C2 (stereo partly shown) [Compound 559]
Result: > 7.00

Q: Now the same for CC(=O)N[C@H]1CC(=O)N2CCCC(CCOc3ccc(C)c(c3)CNC(=O)C(CCc3nccs3)NC1=O)C2 (stereo partly shown) [Compound 563]
Result: > 7.00

Q: How about CC(=O)N[C@H]1CCCC(=O)N2CCC2(C)COc2ccc(C)c(c2)CNC(=O)[C@H](CCc2ccccc2)NC1=O (stereo partly shown) [Compound 281] ?
Result: 5.30 to 6.00

Q: Next up: Cc1ccc2cc1CNC(=O)[C@H](CCc1ccccc1)NC(=O)[C@@H](NC(=O)OCc1ccccc1)CC(=O)N1CC(CCO2)CC2CCCCC21 (stereo partly shown) [Compound 314]
Result: > 7.00

Q: Also need Cc1ccc2cc1CNC(=O)C(c1cnn(C)c1)NC(=O)[C@@H](NC(=O)[C@@H](C)c1ccccc1)CC(=O)N1CCCC(CCO2)C1 (stereo partly shown) [Compound 359] , thanks.
Result: > 7.00

Q: Another compound to look at: Cc1ccc2cc1CNC(=O)[C@H](CCc1ccccc1)NC(=O)[C@@H](NC(=O)C1CC3CCC(C1)N3C(=O)OC(C)(C)C)CC(=O)N1CCCC(CCO2)C1 (stereo partly shown) [Compound 605]
Result: > 7.00

###

Would you kindly list IC50 for each of these compounds?
- measurement_target: β5 subunit of the human constitutive proteasome (CPS) (Homo sapiens, UniProt P28074)
- measurement_protocol: β5 inhibition assay, human constitutive proteasome (Suc-LLVY-AMC)
- measurement_conditions: IC50 class, Suc-LLVY-AMC substrate

Q: Any idea what IC50 came out for Cc1ccc2cc1CNC(=O)[C@H](CCc1ccccc1)NC(=O)[C@@H](NC(=O)CCNS(=O)(=O)c1ccc(OCC3CCCCC3)cc1)CC(=O)N1CCCC(CCO2)C1 (stereo partly shown) on β5 subunit of the human constitutive proteasome (CPS) (Homo sapiens, UniProt P28074)?
Result: < 100 nM

Q: Next: CC(=O)N[C@H]1CCC(=O)N2CC3CC(Oc4ccc(C)c(c4)CNC(=O)[C@H](CCc4ccccc4)NC1=O)C3C2 (stereo partly shown)
Result: > 5000 nM

Q: Now this one: CC(=O)N[C@H]1CC(=O)N2CCCC(CCOc3ccc(C)c(c3)CNC(=O)C(Cc3ccccc3)NC1=O)C2 (stereo partly shown)
Result: < 100 nM

Q: Okay, and Cc1ccc2cc1CNC(=O)[C@H](CCc1ccccc1)NC(=O)[C@@H](NC(=O)Cc1ccc(N)cc1C)CC(=O)N1CCCC(CCO2)C1 (stereo partly shown) ?
Result: < 100 nM

Q: Please give the result for Cc1ccc2cc1CNC(=O)[C@H](CCc1ccccc1)NC(=O)[C@@H](NC(=O)CCNC1CC3(CCC3)C1)CC(=O)N1CCCC(CCO2)C1 (stereo partly shown) too.
Result: < 100 nM

Q: Follow-up entry: Cc1ccc2cc1CNC(=O)C(c1cnn(C)c1)NC(=O)[C@@H](NC(=O)CN1CCCC1)CC(=O)N1CCCC(CCO2)C1 (stereo partly shown)
Result: 100 to 500 nM

Q: Note, next up: Cc1ccc2cc1CNC(=O)[C@H](CCc1ccccc1)NC(=O)[C@@H](NC(=O)c1n[nH]c3ccccc13)CC(=O)N1CCCC(CCO2)C1 (stereo partly shown)
Result: < 100 nM

Q: // same read-out, input: Cc1ccc2cc1CNC(=O)[C@H](CCc1ccccc1)NC(=O)[C@@H](NC(=O)OCc1ccccc1)CCCC(=O)N1CCCC3(CC(C3)O2)C1
Result: 500 to 1000 nM

Q: Also Cc1ccc2cc1CNC(=O)[C@H](CCc1ccccc1)NC(=O)[C@@H](NC1CCC1)CC(=O)N1CCCC(CCO2)C1 (stereo partly shown) ?
Result: < 100 nM

Q: How about this compound: CC(=O)N[C@H]1CCC(=O)N2CCCC(C2)Oc2ccc(C)c(c2)CNC(=O)[C@H](CCc2ccccc2)NC1=O (stereo partly shown)
Result: 1000 to 5000 nM

Q: Lookup Cc1ccc2cc1CNC(=O)C(c1cnn(C)c1)NC(=O)[C@@H](NC(=O)C1CCCc3ccccc31)CC(=O)N1CCCC(CCO2)C1 (stereo partly shown)
Result: < 100 nM

Q: # iterate: Cc1ccc2cc1CNC(=O)[C@H](CCc1ccccc1)NC(=O)[C@@H](NC(=O)C1(C)CCOCC1)CC(=O)N1CCCC(CCO2)C1 (stereo partly shown)
Result: < 100 nM

Q: Would you mind doing Cc1ccc2cc1CNC(=O)[C@H](CCc1cccnc1)NC(=O)[C@@H](NC(=O)Cc1ccc(N)cc1C)CC(=O)N1CCCC(CCO2)C1 (stereo partly shown) as well?
Result: < 100 nM
